These measurements were taken from patent US8664257B2.

- SUBJECT_OF_TEST: Recombinant human cathepsin A (Homo sapiens)
- Construct: Recombinant human cathepsin A (residues 29-480, with a C-terminal 10-His tag); 10-His (C); purchased R&D Systems 1049-SE
- Sequence (P10619 29-312 limits assumed): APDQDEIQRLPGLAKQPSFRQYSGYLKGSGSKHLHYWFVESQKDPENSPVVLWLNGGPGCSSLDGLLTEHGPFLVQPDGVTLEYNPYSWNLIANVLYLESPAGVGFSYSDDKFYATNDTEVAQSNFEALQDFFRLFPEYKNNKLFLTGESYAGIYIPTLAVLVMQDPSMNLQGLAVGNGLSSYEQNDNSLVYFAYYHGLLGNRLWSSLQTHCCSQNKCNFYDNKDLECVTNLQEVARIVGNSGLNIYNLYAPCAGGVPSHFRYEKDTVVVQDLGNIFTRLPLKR
- Sequence (P10619 327-480 limits assumed): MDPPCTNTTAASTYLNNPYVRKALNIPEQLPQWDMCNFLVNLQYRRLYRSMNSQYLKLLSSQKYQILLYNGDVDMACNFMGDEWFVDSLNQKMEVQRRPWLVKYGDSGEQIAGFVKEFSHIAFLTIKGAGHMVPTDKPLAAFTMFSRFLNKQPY
- ASSAY_OVERVIEW: Cathepsin A inhibitory activity
- Format: biochemical
- CONDITIONS: read-out: Activity (2): Cathepsin A inhibitory activity, IC50 class
Measured IC50 values are reported for all entries that follow.
RECORDED_ENDPOINT: IC50

# COMPOUND, TEST_VALUE
records = [
    ("COc1ccc(C(CC(=O)O)NC(=O)c2cc(O)n(-c3ccccc3)n2)cc1F (stereo not shown)", "1000 to 30000 nM"),
    ("O=C(O)CC(NC(=O)c1cc(O)n(-c2ccc(F)cc2F)n1)c1cccc(Oc2ccc(Cl)cc2)c1 (stereo not shown)", "100 to 1000 nM"),
    ("N#Cc1ccc([C@H](CC(=O)O)NC(=O)c2cc(O)n(-c3ccccc3Cl)n2)cc1", "100 to 1000 nM"),
    ("CCCCC(CC(=O)O)NC(=O)c1cc(O)n(-c2ccccc2)n1 (stereo not shown)", "100 to 1000 nM"),
    ("Cc1ccc(C)c(-n2nc(C(=O)NC(CC(=O)O)c3ccccc3Cl)cc2O)c1 (stereo not shown)", "1000 to 30000 nM"),
    ("COc1cc(C(=O)N[C@@H](CC(=O)O)c2ccccc2C)nn1-c1ccccc1F", "< 100 nM"),
    ("CC(C)(C)[C@@](C)(O)COc1cc(C(=O)NC(CC(=O)O)C2CCCCC2)nn1-c1ccccc1F (stereo partly shown)", "< 100 nM"),
    ("CC(C)C(C)(O)COc1cc(C(=O)N[C@@H](CC(=O)O)c2cccc(C#N)c2)nn1-c1ccccc1F (stereo partly shown)", "< 100 nM"),
    ("COc1ccc([C@H](CC(=O)O)NC(=O)c2cc(OC[C@@](C)(O)C(C)C)n(-c3ccccc3F)n2)cc1", "1000 to 30000 nM"),
    ("Cc1ccc([C@H](CC(=O)O)NC(=O)c2cc(OC[C@](C)(O)C(C)C)n(-c3ccccc3F)n2)cc1", "< 100 nM"),
    ("COc1ccccc1[C@@H](NC(=O)c1cc(O)n(-c2cccc(F)c2)n1)[C@@H](O)C(=O)O", "1000 to 30000 nM"),
    ("COc1ccccc1[C@H](CC(=O)O)NC(=O)c1cc(OCC(C)(O)C(C)C)n(-c2ccccc2F)n1 (stereo partly shown)", "< 100 nM"),
    ("COc1ccc([C@H](CC(=O)O)NC(=O)c2cc(O)n(-c3ccccc3Cl)n2)cc1", "100 to 1000 nM"),
    ("O=C(O)C[C@H](NC(=O)c1cc(O)n(-c2cccc(F)c2)n1)c1ccc(Cl)cc1Cl", "100 to 1000 nM"),
    ("CC(C)(C)[C@](C)(O)COc1cc(C(=O)N[C@@H](CC(=O)O)c2ccc(F)cc2)nn1-c1ccccc1F", "< 100 nM"),
    ("O=C(O)C[C@H](NC(=O)c1cc(O)n(-c2ccc(Cl)cc2)n1)c1ccc(F)cc1", "1000 to 30000 nM"),
]
